Attribution: paper PMC8879095

Record form. Attribute: concentration at 23 d. Fill in for each entry.
PROTOCOL NOTES: Antibiotic concentrations in porcine oral fluid after intramuscular application (UHPLC-MS/MS)
Type: in vivo
RUN CONDITIONS: male, (Landrace × Yorkshire) × Duroc crossbred (DanBred sows), pig, intramuscular; oral fluid, pigs, i.m., time 23 d, posttreatment; read-out: Avarage Concentrations in oral fluid
Write the value in ng/mL as a bare number.

# query: concentration at 23 d of entry C=C[C@]1(C)C[C@@H](OC(=O)CSCCN(CC)CC)[C@]2(C)[C@H](C)CC[C@]3(CCC(=O)[C@H]32)[C@@H](C)[C@@H]1O [TIAM, tiamulin]
146

Can you share its concentration at 23 d? I mean this compound: COc1ncnc(NS(=O)(=O)c2ccc(N)cc2)c1OC [SDX, sulfadoxine]
15.9

Which concentration at 23 d reading was recorded for the compound CC[C@H]1OC(=O)C[C@@H](O)[C@H](C)[C@@H](O[C@@H]2O[C@H](C)[C@@H](O[C@H]3C[C@@](C)(O)[C@@H](O)[C@H](C)O3)[C@H](N(C)C)[C@H]2O)[C@@H](CC=O)C[C@@H](C)C(=O)/C=C/C(C)=C/[C@@H]1CO[C@@H]1O[C@H](C)[C@@H](O)[C@@H](OC)[C@H]1OC [TYL, tylosin] ?
5.4

Given COc1cc(Cc2cnc(N)nc2N)cc(OC)c1OC [TRMP, trimethoprim] , state its recorded concentration at 23 d.
6.9

Record request: concentration at 23 d value, item CCC[C@@H]1C[C@@H](C(=O)N[C@@H]([C@H]2O[C@H](SC)[C@H](O)[C@@H](O)[C@H]2O)[C@@H](C)O)N(C)C1 [LIN, lincomycin]
298
